- assayNotes: Stability in mouse plasma assessed as intact peptide level at 1.56 mM incubated for 1 hr by RP-HPLC analysis
- Assay type: ADME, cell-free
- conditions: read-out: Stabilty
testReadout: remaining at 1 h, 1560 µM (%)
Enter your answer as a number in %; do not include the unit.

chemSmiles: CCCCCCCCCCCCCCCC(=O)N[C@@H](CCC(=O)N[C@@H](CS)C(=O)N[C@@H](CCSC)C(=O)N1CCC[C@H]1C(=O)N[C@@H](CC(C)C)C(=O)N[C@@H](Cc1c[nH]cn1)C(=O)N[C@@H](CO)C(=O)N[C@@H](CCCNC(=N)N)C(=O)N[C@H](C(=O)N1CCC[C@H]1C(=O)N[C@@H](Cc1ccccc1)C(=O)N1CCC[C@H]1C(N)=O)C(C)C)C(=O)O
remaining at 1 h, 1560 µM (%): 63.6
--
chemSmiles: CCCCCCCCCCCCCCCC(=O)N[C@@H](CCC(=O)NCCCC[C@H](N)C(=O)N[C@@H](CS)C(=O)N[C@@H](CCSC)C(=O)N1CCC[C@H]1C(=O)N[C@@H](CC(C)C)C(=O)N[C@@H](Cc1c[nH]cn1)C(=O)N[C@@H](CO)C(=O)N[C@@H](CCCNC(=N)N)C(=O)N[C@H](C(=O)N1CCC[C@H]1C(=O)N[C@@H](Cc1ccccc1)C(=O)N1CCC[C@H]1C(N)=O)C(C)C)C(=O)O
remaining at 1 h, 1560 µM (%): 25.8
--
chemSmiles: CSCC[C@H](NC(=O)[C@H](CS)NC(=O)CC[C@H](NC(=O)CCOCCOCCOCCOCCOCCOCCN)C(=O)O)C(=O)N1CCC[C@H]1C(=O)N[C@@H](CC(C)C)C(=O)N[C@@H](Cc1c[nH]cn1)C(=O)N[C@@H](CO)C(=O)N[C@@H](CCCNC(=N)N)C(=O)N[C@H](C(=O)N1CCC[C@H]1C(=O)N[C@@H](Cc1ccccc1)C(=O)N1CCC[C@H]1C(N)=O)C(C)C
remaining at 1 h, 1560 µM (%): 38.7

Now look at this entry.
Exercise: Given CSCC[C@H](NC(=O)[C@@H](N)CS)C(=O)N1CCC[C@H]1C(=O)N[C@@H](CC(C)C)C(=O)N[C@@H](Cc1c[nH]cn1)C(=O)N[C@@H](CO)C(=O)N[C@@H](CCCNC(=N)N)C(=O)N[C@H](C(=O)N1CCC[C@H]1C(=O)N[C@@H](Cc1ccccc1)C(=O)N1CCC[C@H]1C(N)=O)C(C)C , state its recorded remaining at 1 h, 1560 µM.
Solution: 19

====

- assayNotes: Half life in mouse at 3 umol/kg, iv by analytical RP-HPLC analysis
- Assay type: ADME, organism-based
- conditions: in vivo, dose 3 µmol/kg
Quick list: half-life per entry.
Enter your answer as a number in h; do not include the unit.

chemSmiles: CCCCCCCCCCCCCCCC(=O)N[C@@H](CCC(=O)N[C@@H](CS)C(=O)N[C@@H](CCSC)C(=O)N1CCC[C@H]1C(=O)N[C@@H](CC(C)C)C(=O)N[C@@H](Cc1c[nH]cn1)C(=O)N[C@@H](CO)C(=O)N[C@@H](CCCNC(=N)N)C(=O)N[C@H](C(=O)N1CCC[C@H]1C(=O)N[C@@H](Cc1ccccc1)C(=O)N1CCC[C@H]1C(N)=O)C(C)C)C(=O)O
testReadout: half-life
readoutUnit: h
reportedValue: 22.6

Now look at this entry.
Exercise: Given CSCC[C@H](NC(=O)[C@@H](N)CS)C(=O)N1CCC[C@H]1C(=O)N[C@@H](CC(C)C)C(=O)N[C@@H](Cc1c[nH]cn1)C(=O)N[C@@H](CO)C(=O)N[C@@H](CCCNC(=N)N)C(=O)N[C@H](C(=O)N1CCC[C@H]1C(=O)N[C@@H](Cc1ccccc1)C(=O)N1CCC[C@H]1C(N)=O)C(C)C , state its recorded half-life.
Solution: 0.35

====

- assayNotes: Stability in human plasma assessed as half life at 1.56 mM by RP-HPLC analysis
- Format: ADME, cell-free
testReadout: half-life at 1560 µM (h)
Enter your answer as a number in h; do not include the unit.

Exercise: Given CCCCCCCCCCCCCCCC(=O)N[C@@H](CCC(=O)N[C@@H](CS)C(=O)N[C@@H](CCSC)C(=O)N1CCC[C@H]1C(=O)N[C@@H](CC(C)C)C(=O)N[C@@H](Cc1c[nH]cn1)C(=O)N[C@@H](CO)C(=O)N[C@@H](CCCNC(=N)N)C(=O)N[C@H](C(=O)N1CCC[C@H]1C(=O)N[C@@H](Cc1ccccc1)C(=O)N1CCC[C@H]1C(N)=O)C(C)C)C(=O)O , state its recorded half-life at 1560 µM.
Solution: 1.97
